Target: T1, cynomolgus monkey CTLA4-his protein (Acro biosystems, Cat#CT4-C5227) (cynomolgus monkey, UniProt G7PL88 36-161)
T1 construct: bought recombinant protein; also called Cynomolgus CTLA4-his; not shown: his tag
T1 sequence: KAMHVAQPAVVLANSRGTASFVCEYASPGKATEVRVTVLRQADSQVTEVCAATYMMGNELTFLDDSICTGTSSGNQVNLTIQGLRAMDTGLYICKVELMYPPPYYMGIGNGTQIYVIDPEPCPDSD
Assay: SPR, Biacore T200; antibody captured, CTLA4-his as analyte
Reported Endpoint: kon (M⁻¹ s⁻¹)
Supply the numeric figure in M⁻¹ s⁻¹, leaving out any unit text.

Solved cases below.
1) mouse anti-CTLA4 monoclonal antibody C1D1 (antibody, V domains shown, mouse mAb purified from hybridoma supernatant) VH: EVKLDETGGGLVQPGRPLKLSCVASGFTFSDNWMNWVRQSPEKGLEWVAQIRNKPYNYETYYSDSVKGRFTISRDDSKSSVYLQMNNLRVEDMGIYYCTGGMDYWGQGTSVTVSS VL: DIQMTQSPASLSASVGETVTITCGASEIIYGALNWYQQKQGKSPQLLIYGATNLADGMSSRFSGSGSGRQYSLKISSLHPDDAATYYCQKILSPPPWTFGGGTKLEIK = 478000
2) mouse anti-CTLA4 monoclonal antibody D1H3 (antibody, V domains shown, mouse mAb purified from hybridoma supernatant) VH: QVQLQQPGAELVNPGASVKLSCKASGYTFTSYWLHWVKQRPGRGLEWIGRIDPNRGTIYYNEKFNNKATVTVDKPSNTAYMQLSRLTLEDSAVYYCARGGSNFYAMDYWGQGTSVTVSS VL: DIQMTQSPASLSASVGETVTITCRTSENIYSYLAWYQQKQGESPQLLVYNAKTLAEGVPSRFSGSGSGTQFSLKINSLQPEDFGSYYCQNHDGIPFTFGSGTKLEIK = 290000
3) mouse anti-CTLA4 monoclonal antibody D2A4 (antibody, V domains shown, mouse mAb purified from hybridoma supernatant) VH: QVQLQQPGAELVKPGSSVNLSCKASGYTFTSYWVHWVKQGPGRGLEWIGRIDPNRGGTYYNENFKTKAALTVDSPSSTAYMHLSSLTSEDSAVYYCARGGLNYYALDYWGQGTSVTVSS VL: DIQMTQSPASLFASLGETVTITCRASENIYSYLAWYQQKQGKSPQLLVYNANTLTEGVPSSFSGSGSGTQFSLKINTLQPEDFGTYYCQHHYGIPFTFGSGTKLEIK = 340000
4) mouse anti-CTLA4 monoclonal antibody D1B6 (antibody, V domains shown, mouse mAb purified from hybridoma supernatant) VH: EVQLQQSGPELVKPGASVKLSCKASGNTFTTYVLNWVKQKPGQGLEWIGYFNPYNDGIKYNEKFKGKATLTSDKSSNTAYMELSSLTSEDSAVYYCARFEGGGYAMDYWGQGTSVTVSS VL: DIVLTQSPASLAVSLGQRATISCRASQSVGTSRNTYIHWYQQKLGQPPKLLIKYASDLESGVPARFSGSGSGTDFTLNIHPVEEEDTATYYCQHSWEIPYTFGGGTKLEIK = 191000
5) mouse anti-CTLA4 monoclonal antibody D1G6 (antibody, V domains shown, mouse mAb purified from hybridoma supernatant) VH: EVQLQQSGPELVKPGASVKLSCKASGNTFTTYVLNWVKQKPGQGLEWIGYFNPYNDAIKYNEKFKGKATLTSDKSSSTAYMELSSLTSEDSAVYYCARFEGGGYAMDYWGQGTSVTVSS VL: DIVLTQSPASLAVSLGQRATISCRASQSVGTSSYSYIHWYQQKPGQPPKLLIKYASDLESGVPARFSGSGSGTDFTLNIHPVEEEDTATYYCQHSWEIPYTFGGGTKLEIK = 338000

Qu. What value of kon has been reported for the following binder? mouse anti-CTLA4 monoclonal antibody D1A7 (antibody, V domains shown, mouse mAb purified from hybridoma supernatant) VH: QVTLKESGPGMLQPSQTLSLTCSFSGFSLSSSKLGVGWIRQPAGKGLEWLAHIWWNDDNYYVPSLKSRLTISKDTSNNQVFLKITNVDAADTATYYCVQVPYYTTQPWFAYWGQGTLVTVSA VL: DIQMTQSPASLSASVGETVTITCRASGNIHNYLAWYLQNQGRSPQLLVYNTETLADGVSSRFSGSGSGTQYFLKISSLQPEDFGTYYCQHLWSTPWTFGGGTKLEIK
Ans. 829000

Qu. Would you kindly share the measured kon for mouse anti-CTLA4 monoclonal antibody C1G4 (antibody, V domains shown, mouse mAb purified from hybridoma supernatant) VH: EVKLDETGGGLVQPGRPIKLSCVASGFTFSDNWMNWVRQSPEKGLEWVAQIRNKPYNYETYYSDSVKGRFTISRDDSKSSVYLQMNNLRTKDMGIYYCTGGFTYWGQGTLVTVSA VL: DIQMTQSPPSLSASVGETVTITCGASENIYGGLNWYQRKQGKSPQLLIYGATNLADGMSSRFSGSGSGRQYSLKISRLHPDDVATYYCQNVLNTPYTFGGGTKLEIK ?
Ans. 451000

Sourced from patent US20230212304A1
